Reference source: patent US20240239766A1

Biological target: hNav1.7 (Homo sapiens (Human), UniProt Q15858)
Sequence (Q15858 other isoform, or with tags, fused parts or gaps): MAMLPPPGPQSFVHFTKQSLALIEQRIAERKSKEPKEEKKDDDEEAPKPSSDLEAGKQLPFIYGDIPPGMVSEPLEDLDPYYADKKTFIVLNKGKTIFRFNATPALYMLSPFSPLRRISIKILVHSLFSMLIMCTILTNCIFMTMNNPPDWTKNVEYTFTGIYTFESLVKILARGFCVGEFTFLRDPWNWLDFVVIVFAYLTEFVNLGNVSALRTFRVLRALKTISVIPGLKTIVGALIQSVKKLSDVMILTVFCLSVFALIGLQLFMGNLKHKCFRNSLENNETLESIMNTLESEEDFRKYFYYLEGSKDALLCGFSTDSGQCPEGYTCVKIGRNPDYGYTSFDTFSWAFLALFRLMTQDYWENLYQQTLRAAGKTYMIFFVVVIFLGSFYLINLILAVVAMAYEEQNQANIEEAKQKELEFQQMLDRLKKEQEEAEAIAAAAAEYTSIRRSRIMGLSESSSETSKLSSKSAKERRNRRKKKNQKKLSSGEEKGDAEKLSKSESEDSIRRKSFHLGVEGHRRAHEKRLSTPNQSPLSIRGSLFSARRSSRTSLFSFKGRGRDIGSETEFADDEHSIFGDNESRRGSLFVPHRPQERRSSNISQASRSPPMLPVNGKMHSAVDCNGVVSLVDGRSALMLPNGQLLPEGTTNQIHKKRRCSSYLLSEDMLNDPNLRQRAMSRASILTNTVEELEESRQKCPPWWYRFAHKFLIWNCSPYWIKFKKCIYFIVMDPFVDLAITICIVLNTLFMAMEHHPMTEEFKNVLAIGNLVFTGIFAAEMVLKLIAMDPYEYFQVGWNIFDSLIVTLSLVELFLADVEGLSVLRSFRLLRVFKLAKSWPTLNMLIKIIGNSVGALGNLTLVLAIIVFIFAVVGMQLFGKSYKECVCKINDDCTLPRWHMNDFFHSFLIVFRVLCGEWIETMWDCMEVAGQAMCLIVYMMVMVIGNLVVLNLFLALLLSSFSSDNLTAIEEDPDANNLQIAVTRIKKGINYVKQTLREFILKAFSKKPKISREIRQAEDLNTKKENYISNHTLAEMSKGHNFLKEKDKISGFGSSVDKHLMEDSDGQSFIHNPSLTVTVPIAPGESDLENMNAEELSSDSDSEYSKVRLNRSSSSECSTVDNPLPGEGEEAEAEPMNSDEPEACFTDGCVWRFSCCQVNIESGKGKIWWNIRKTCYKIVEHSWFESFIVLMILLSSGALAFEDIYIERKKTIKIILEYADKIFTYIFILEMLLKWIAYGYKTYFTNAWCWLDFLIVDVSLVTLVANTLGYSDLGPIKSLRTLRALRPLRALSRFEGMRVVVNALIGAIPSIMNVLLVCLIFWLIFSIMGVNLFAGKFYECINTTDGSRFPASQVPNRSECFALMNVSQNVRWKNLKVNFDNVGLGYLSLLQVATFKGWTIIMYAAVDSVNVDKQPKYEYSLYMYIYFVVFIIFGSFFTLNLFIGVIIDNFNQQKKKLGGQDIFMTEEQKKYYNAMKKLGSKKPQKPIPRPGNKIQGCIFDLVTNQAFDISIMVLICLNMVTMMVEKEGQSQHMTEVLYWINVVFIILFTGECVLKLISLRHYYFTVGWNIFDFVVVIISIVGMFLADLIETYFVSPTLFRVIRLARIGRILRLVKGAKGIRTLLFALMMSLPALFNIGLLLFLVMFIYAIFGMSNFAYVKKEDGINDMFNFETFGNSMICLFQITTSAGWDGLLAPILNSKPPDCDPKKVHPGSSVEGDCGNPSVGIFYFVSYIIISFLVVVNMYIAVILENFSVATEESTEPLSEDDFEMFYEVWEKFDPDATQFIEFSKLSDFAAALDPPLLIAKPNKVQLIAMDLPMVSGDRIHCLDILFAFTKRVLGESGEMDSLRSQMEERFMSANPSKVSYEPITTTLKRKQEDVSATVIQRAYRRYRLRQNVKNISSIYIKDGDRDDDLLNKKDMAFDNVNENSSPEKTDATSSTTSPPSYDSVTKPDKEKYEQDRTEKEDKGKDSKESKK
Assay: Patch voltage clamp electrophysiology assay (EP), Syncropatch 384PE, CHO cells expressing Nav1.7
Assay type: cell-based
Conditions: holding potential −50 mV; 7.5 min compound incubation; read-out: EP SP hNav1.7 EVO (IC50)
From the text: Example 101c: Electrophysiological Assay (EP) (In Vitro Assay) Patch voltage clamp electrophysiology allows for the direct measurement and quantification of block of voltage-gated sodium channels (NaV's), and allows the determination of the time- and voltage-dependence of block which has been interpreted as differential binding to the resting, open, and inactivated states of the sodium channel (Hille, B., Journal of General Physiology (1977), 69: 497-515). […]
Structures can show the parent of a compound that is named as a salt.
Lab note: anything with IC50 below 8 nM is marked Met; values at 8 nM or higher are marked Not met.

>  <Compound>
Cc1cc(N2CCC[C@](CCc3cccc(C(F)(F)F)c3)(N(C)C)C2)ccc1S(=O)(=O)Nc1ccncn1 (single isomer, unassigned) [Example 72, formate]

>  <Category label>
Not met

$$$$
>  <Compound>
CN(C)CCN(C)[C@@]1(CCc2cccc(C(F)(F)F)c2)CCCN(c2ccc(S(=O)(=O)Nc3ccncn3)c(F)c2)C1 (single isomer, unassigned) [Example 27, formate]

>  <Category label>
Not met

$$$$
>  <Compound>
CN(C)[C@]1(CCc2cccc(C(F)(F)F)c2)CCCN(c2cc(F)c(S(=O)(=O)Nc3ccncn3)cc2F)C1 (single isomer, unassigned)

>  <Category label>
Not met

$$$$
>  <Compound>
CN1CCC(N(C)[C@]2(CCc3cccc(C(F)(F)F)c3)CCCN(c3ccc(S(=O)(=O)Nc4ccncn4)c(F)c3)C2)CC1 (single isomer, unassigned) [Example 37, formate]

>  <Category label>
Met

$$$$
>  <Compound>
CN(C)[C@@]1(CCc2cc(C(F)(F)F)ccc2Cl)CCCN(c2cc(F)c(S(=O)(=O)Nc3ccncn3)c(F)c2)C1 (single isomer, unassigned)

>  <Category label>
Not met

$$$$
>  <Compound>
CN(C)[C@]1(CCC2CCCCC2)CCCN(c2cc(F)c(S(=O)(=O)Nc3ccncn3)c(F)c2)C1 [Example 93, formate]

>  <Category label>
Not met

$$$$
>  <Compound>
CCN(C)[C@@]1(CCc2cccc(C(F)(F)F)c2)CCCN(c2cc(F)c(S(=O)(=O)Nc3ccncn3)c(F)c2)C1 (single isomer, unassigned)

>  <Category label>
Not met

$$$$
>  <Compound>
CN(C)[C@@]1(C[C@H]2CCc3ccc(C(F)(F)F)cc32)CCCN(c2cc(F)c(S(=O)(=O)Nc3ccncn3)c(F)c2)C1 [Example 47, formate]

>  <Category label>
Not met

$$$$
>  <Compound>
Cc1cc(N2CCC[C@@](CCc3cccc(C(F)(F)F)c3)(N(C)C)C2)cc(F)c1S(=O)(=O)Nc1ccncn1

>  <Category label>
Met

$$$$
>  <Compound>
CN(C)[C@@]1(CCc2cccc(C(F)(F)F)c2)CCCN(c2ccc(S(=O)(=O)Nc3nccs3)c(F)c2)C1 (single isomer, unassigned)

>  <Category label>
Met

$$$$
